Test system: NCI-H446
assayProcedure: Antiproliferative activity against human NCI-H446 cells assessed as inhibition of cell growth incubated for 72 hrs by CCK8 assay
Format: functional, cell-based
runParameters: NCI-H446, 72 h
pIC50: −log10 of the molar value.
measure: pIC50

compound | subjectOfTest | resultNumber
O=C1CCC(Nc2ccc(N3CCN(CC4CCN(CC(=O)N5CCC(NC(=O)c6n[nH]cc6NC(=O)c6c(Cl)cccc6Cl)CC5)CC4)CC3)cc2)C(=O)N1 (stereo not drawn) | NCI-H446 | 7.45
O=C1CCC(N2C(=O)c3ccc(N4CCN(CC5CCN(C(=O)CN6CCC(NC(=O)c7n[nH]cc7NC(=O)c7c(Cl)cccc7Cl)CC6)CC5)CC4)cc3C2=O)C(=O)N1 (stereo not drawn) | NCI-H446 | 8.43
CN1C(=O)CCC(Nc2cccc(N3CCN(CC4CCN(CC(=O)N5CCC(NC(=O)c6n[nH]cc6NC(=O)c6c(Cl)cccc6Cl)CC5)CC4)CC3)c2)C1=O (stereo not drawn) | NCI-H446 | 6.23
